Below are IC50 measurements against PIP4K2B (Homo sapiens, UniProt P78356) drawn from the literature.
Sequence (P78356 whole entry, species assumed): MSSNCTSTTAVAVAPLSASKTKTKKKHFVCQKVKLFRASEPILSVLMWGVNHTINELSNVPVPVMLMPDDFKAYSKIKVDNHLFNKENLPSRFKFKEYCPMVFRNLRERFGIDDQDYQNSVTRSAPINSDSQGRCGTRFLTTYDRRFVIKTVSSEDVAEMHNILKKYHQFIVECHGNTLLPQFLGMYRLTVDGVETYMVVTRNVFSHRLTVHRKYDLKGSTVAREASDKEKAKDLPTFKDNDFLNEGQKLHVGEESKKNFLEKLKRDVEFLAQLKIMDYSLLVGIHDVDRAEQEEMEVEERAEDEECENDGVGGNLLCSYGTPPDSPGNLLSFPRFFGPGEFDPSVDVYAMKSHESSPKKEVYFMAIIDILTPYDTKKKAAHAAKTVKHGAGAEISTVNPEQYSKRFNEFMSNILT

Completed entries (count: 4):
COc1cc(Nc2cnc3c(c2)N2C(=O)C4(CC4)C[C@H]2CO3)ncc1-c1ccc(N2CCCC2=O)cc1: 1 to 10 nM
Cc1cc(N2CCn3c(cc4c(-c5cncc(-c6ccc(N7CCCC7=O)cc6)c5)ccnc43)C2=O)nn1C: 10 to 100 nM
CC1CN(C(=O)Nc2cncc(Nc3ccc(-c4ccc(N5CCCC5=O)cc4)cn3)c2)CCN1 (centres unmarked): 10 to 100 nM
CC1Oc2cc(C(=O)N(C)C)ccc2-c2cnc(Nc3cnc4c(c3)N(S(=O)(=O)C3CC3)CCO4)cc21 (centres unmarked): 1 to 10 nM

Next, consider the following compound.
Request: # input compound: COc1cc(-c2cncc(-c3ccc(N4CCCC4=O)cc3)c2)c2c[nH]nc2n1 ; wanted: its IC50
Result: 100 to 1000 nM
